- test.description: Probe fluorescence ratio response to linolenic acid relative to ADIFAB2
- Format: binding
- experimental.setup: response relative to ADIFAB2
Reported DR/DR LNA by item:
Provide a numeric answer; units are not to be included.

INSERT INTO assay_data (molecule, endpoint_label, test_result) VALUES
  ('49I, 72A (protein, listed as Rattus norvegicus, PEPTIDE (1)...(131) wild-type rat intestinal fatty acid binding protein) AFDGTWKVDRNENYEKFMEKMGINVVKRKLGAHDNLKLTITQEGNKFTIKESSNFRNIDVVFELGVDFAYSAADGTELTGTWTMEGNKLVGKFKRVDNGKELIAVREISGNELIQTYTYEGVEAKRIFKKE', 'DR/DR LNA', 1.820),
  ('31W2, 72A (protein, listed as Rattus norvegicus, PEPTIDE (1)...(131) wild-type rat intestinal fatty acid binding protein) AFDGTWKVDRNENYEKFMEKMGINVVKRKLWAHDNLKLTITQEGNKFTVKESSNFRNIDVVFELGVDFAYSAADGTELTGTWTMEGNKLVGKFKRVDNGKELIAVREISGNELIQTYTYEGVEAKRIFKKE', 'DR/DR LNA', 1.03),
  ('73W 74I (protein, listed as Rattus norvegicus, PEPTIDE (1)...(131) wild-type rat intestinal fatty acid binding protein) AFDGTWKVDRNENYEKFMEKMGINVVKRKLGAHDNLKLTITQEGNKFTVKESSNFRNIDVVFELGVDFAYSLWIGTELTGTWTMEGNKLVGKFKRVDNGKELIAVREISGNELIQTYTYEGVEAKRIFKKE', 'DR/DR LNA', 1.325);

(Q) Give reported DR/DR LNA value for 14L 18T 31E 73G 117G 72A (protein, listed as Rattus norvegicus, PEPTIDE (1)...(131) wild-type rat intestinal fatty acid binding protein) AFDGTWKVDRNENLEKFTEKMGINVVKRKLEAHDNLKLTITQEGNKFTVKESSNFRNIDVVFELGVDFAYSAGDGTELTGTWTMEGNKLVGKFKRVDNGKELIAVREISGNELIQTGTYEGVEAKRIFKKE
(A) 1.133

(Q) Give reported DR/DR LNA value for 36A, 72A (protein, listed as Rattus norvegicus, PEPTIDE (1)...(131) wild-type rat intestinal fatty acid binding protein) AFDGTWKVDRNENYEKFMEKMGINVVKRKLGAHDNAKLTITQEGNKFTVKESSNFRNIDVVFELGVDFAYSAADGTELTGTWTMEGNKLVGKFKRVDNGKELIAVREISGNELIQTYTYEGVEAKRIFKKE
(A) 0.50

(Q) Give reported DR/DR LNA value for 68N, 72A (protein, listed as Rattus norvegicus, PEPTIDE (1)...(131) wild-type rat intestinal fatty acid binding protein) AFDGTWKVDRNENYEKFMEKMGINVVKRKLGAHDNLKLTITQEGNKFTVKESSNFRNIDVVFELGVDNAYSAADGTELTGTWTMEGNKLVGKFKRVDNGKELIAVREISGNELIQTYTYEGVEAKRIFKKE
(A) 0.60

(Q) Give reported DR/DR LNA value for 72C (protein, listed as Rattus norvegicus, PEPTIDE (1)...(131) wild-type rat intestinal fatty acid binding protein) AFDGTWKVDRNENYEKFMEKMGINVVKRKLGAHDNLKLTITQEGNKFTVKESSNFRNIDVVFELGVDFAYSCADGTELTGTWTMEGNKLVGKFKRVDNGKELIAVREISGNELIQTYTYEGVEAKRIFKKE
(A) 0.17

(Q) Give reported DR/DR LNA value for 36N, 72A (protein, listed as Rattus norvegicus, PEPTIDE (1)...(131) wild-type rat intestinal fatty acid binding protein) AFDGTWKVDRNENYEKFMEKMGINVVKRKLGAHDNNKLTITQEGNKFTVKESSNFRNIDVVFELGVDFAYSAADGTELTGTWTMEGNKLVGKFKRVDNGKELIAVREISGNELIQTYTYEGVEAKRIFKKE
(A) 0.42

(Q) Give reported DR/DR LNA value for 38Q 62I 106I 117A 72A (protein, listed as Rattus norvegicus, PEPTIDE (1)...(131) wild-type rat intestinal fatty acid binding protein) AFDGTWKVDRNENYEKFMEKMGINVVKRKLGAHDNLKQTITQEGNKFTVKESSNFRNIDVVIELGVDFAYSAADGTELTGTWTMEGNKLVGKFKRVDNGKELIAVIEISGNELIQTATYEGVEAKRIFKKE
(A) 0.930

(Q) Give reported DR/DR LNA value for 18V 31A 55W 73W 72A (protein, listed as Rattus norvegicus, PEPTIDE (1)...(131) wild-type rat intestinal fatty acid binding protein) AFDGTWKVDRNENYEKFVEKMGINVVKRKLAAHDNLKLTITQEGNKFTVKESSNWRNIDVVFELGVDFAYSAWDGTELTGTWTMEGNKLVGKFKRVDNGKELIAVREISGNELIQTYTYEGVEAKRIFKKE
(A) 1.887

(Q) Give reported DR/DR LNA value for 38Y 117A 72A (protein, listed as Rattus norvegicus, PEPTIDE (1)...(131) wild-type rat intestinal fatty acid binding protein) AFDGTWKVDRNENYEKFMEKMGINVVKRKLGAHDNLKYTITQEGNKFTVKESSNFRNIDVVFELGVDFAYSAADGTELTGTWTMEGNKLVGKFKRVDNGKELIAVREISGNELIQTATYEGVEAKRIFKKE
(A) 1.547

The measurements presented in this section are drawn from patent US20060257938A1.
